# credit: PubChem BioAssay (NCI)

Listed below: TGI values for each entry.
Test system: M14 melanoma
Assay: NCI tumour cell line growth inhibition, 48 h
measuredEndpoint: TGI

[
  {
    "molecule": "CC(C)N(C(=O)C1(C)CC1)C(C)C",
    "result": "> 100 µM"
  },
  {
    "molecule": "COc1ccc2c(c1)CCN=C2Cc1ccccc1CCCl",
    "result": "46.1 µM"
  },
  {
    "molecule": "COCc1c(CO)cnc(C)c1OC1OC(CO)C(O)C(O)C1O (stereo unspecified)",
    "result": "> 100 µM"
  },
  {
    "molecule": "COc1cccc(Cn2c(-c3nonc3N)nc3ccccc32)c1",
    "result": "> 100 µM"
  },
  {
    "molecule": "CCOC(=O)Cc1nc2ccccc2s1",
    "result": "31 µM"
  },
  {
    "molecule": "CC1=CC=C2c3ccccc3C=CN2C(=O)C1",
    "result": "> 100 µM"
  },
  {
    "molecule": "COC(=O)[C@@]1(Cc2ccccc2)[C@H]2c3cc(C(=O)N4CCCC4)n(Cc4ccc(OC)c(OC)c4)c3C[C@H]2CN1C(=O)c1ccccc1",
    "result": "25.7 µM"
  },
  {
    "molecule": "CC(=O)[O-].CC(=O)[O-].O=C(N/N=C/c1cc(Cl)cc(Cl)c1O)c1ccncc1.[Ni+2]",
    "result": "> 100 µM"
  },
  {
    "molecule": "O=C(/C=C/c1ccc(O)c(O)c1)OCc1ccccc1",
    "result": "48.2 µM"
  },
  {
    "molecule": "Oc1cccc(-c2ccc3c4c2O[C@H]2c5[nH]c6ccccc6c5C[C@@]5(O)[C@@H](C3)N(CC3CC3)CC[C@]425)c1",
    "result": "3.07 µM"
  },
  {
    "molecule": "CN[C@@H](C)C(=O)N[C@H]1CN(C(=O)CC(C)C)CC[C@H]2CC[C@@H](C(=O)NC(c3ccccc3)c3ccccc3)N2C1=O",
    "result": "> 100 µM"
  },
  {
    "molecule": "CCN(CC)c1ccc(C2CC(c3cc(OC)c(OC)c(OC)c3)=NN2)cc1 (stereo unspecified)",
    "result": "> 100 µM"
  },
  {
    "molecule": "CCN1C(=O)N(CC)C2C1NN=c1s/c(=C\\c3ccccc3F)c(=O)n12 (stereo unspecified)",
    "result": "> 100 µM"
  },
  {
    "molecule": "O=C(/C=C/c1ccc(O)c(O)c1)OC1C[C@@](O)(C(=O)O)C[C@@H](O)[C@H]1OC(=O)/C=C/c1ccc(O)c(O)c1 (stereo partly specified)",
    "result": "> 100 µM"
  },
  {
    "molecule": "Cc1n[n+](CC(=O)c2ccccc2)c2sc(N)nn12",
    "result": "> 100 µM"
  },
  {
    "molecule": "CC(=O)OCC1OC(n2c(C#N)cc(=O)[nH]c2=O)CC1OC(C)=O (stereo unspecified)",
    "result": "> 100 µM"
  },
  {
    "molecule": "CCN(CC)CCCC(C)Nc1cc(-c2ccc(C(F)(F)F)cc2)c(C#N)c2nc3ccccc3n12 (stereo unspecified)",
    "result": "3.37 µM"
  },
  {
    "molecule": "NC(=NCCCC1(c2ccccc2)CCCC1)Nc1ccc(Cl)cc1",
    "result": "3.27 µM"
  },
  {
    "molecule": "Cc1[nH]n(C2=NCCN2)c(=O)c1C",
    "result": "> 100 µM"
  },
  {
    "molecule": "C=CCc1c(C)nc(C)nc1N/N=C/C=C/c1ccccc1",
    "result": "> 100 µM"
  },
  {
    "molecule": "CCCCOCn1c(=O)[nH]c(=O)c2ccccc21",
    "result": "> 100 µM"
  }
]
